Assay: Quantitative highthroughput screen to assess conditional lethalithy of P12 Ichikawa cells grown in RPMI1640 with dialyzed fetal bovine serum (RPMI+ds) (AID 1963880); further: nearly all actives have a fitted effect of over 35% in size; further: potency means the concentration at half of the fitted maximal effect
Conditions: ATP luminescence, 48 h; P12-Ichikawa viability; series mostly up to 45.8 µM
Records with an inconclusive call do not appear. The source made the active and inactive calls. The call rests on the fitted dose curve; in most records, active means well fitted cell-killing curve with a large enough effect; inconclusive means small, poorly fitted or top-dose-only effect; inactive means flat fitted curve, though single readings scatter.
measurement label: Potency

compound: C[C@H](c1ccc(F)cc1CCCC(=O)O)N(c1cc(F)ccc1F)S(=O)(=O)c1ccc(Cl)cc1
Potency: inactive
--
compound: CCCCN(CCCC)CC(O)c1cc(Cl)cc2c1-c1ccc(Cl)cc1C2=Cc1ccc(Cl)cc1 (stereo not given)
Potency: inactive
--
compound: COc1ccc(F)c(F)c1C(=O)c1cnc(NC2CCN(S(C)(=O)=O)CC2)nc1N
Potency: 11.8 µM (active)
--
compound: COc1ccc(-c2nc3ccc(C4=NNC(=O)CC4C)cc3[nH]2)cc1 (stereo not given)
Potency: inactive

Please find the next compound below.
What does the record list as Potency for CCC(C)(Oc1ccc(C2(c3ccc(OC(C)(CC)C(=O)O)cc3)CCCCC2)cc1)C(=O)O (stereo not given) ? inactive

Every entry's value here was drawn from PubChem BioAssay (NCATS).
